Assay: Half-life of nitric oxide generators at pH 7.4 and 37° C. (Table 1)
Details: pH 7.4
Structures can show the parent of a compound that is named as a salt.
The reader will find reported Half-life values listed item by item below.
Number in min, nothing else.

[
  {
    "compound": "CCN(CC)[N+]([O-])=NOCOC [MOM-DEA/NO]",
    "recorded.metric": "Half-life",
    "number": 7200
  },
  {
    "compound": "CCN(CC)[N+]([O-])=NO [DEA/NO, sodium salt]",
    "recorded.metric": "Half-life",
    "number": 2
  }
]

Now look at this entry.
The value of Half-life measured for the compound CCN(CC)[N+]([O-])=NOS(=O)(=O)N(C)C [S-DEA/NO] turned out to be 30
